- experimental_system: T1, 4H3865-AA
- T1 chain: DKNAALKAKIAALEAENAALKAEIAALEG
- run_description: two-hybrid library CCmax;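 further: natural log of median RNA to DNA barcode read ratio; higher means stronger binding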
- reported_conditions: mean of both orientations
# if measured interaction score < -1: 1 (yes)  # else: 0 (no)

Example results:
DKIAALKAEIAALKAENAALEAKNAALKG [4H2648-AA] = 1 (yes)
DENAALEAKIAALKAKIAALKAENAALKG [4H1388-AA] = 1 (yes)
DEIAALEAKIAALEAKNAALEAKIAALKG [4H310-AA] = 0 (no)
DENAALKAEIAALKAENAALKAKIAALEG [4H1629-AA] = 0 (no)
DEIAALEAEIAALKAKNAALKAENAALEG [4H123-AA] = 1 (yes)
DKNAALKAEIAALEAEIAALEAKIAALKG [4H3590-AA] = 1 (yes)

Next item in the queue.
[in] For this binder, is interaction score lower than -1? DKNAALKAEIAALKAKNAALEAEIAALEG [4H3697-AA]
[out] 1 (yes)
